System: UO-31 renal
ASSAY METHOD TEXT: NCI tumour cell line growth inhibition, 48 h
// TGI lookup, one value per entry
API: value field is a number in µM; no unit string.

Example entries begin here.
{"MOLECULE": "COc1ccc(/C=C2/CN(C(=O)c3ccccc3F)C/C(=C\\c3ccc(OC)cc3)C2=O)cc1", "MEASURED TARGET": "UO-31 renal", "TGI / µM": 6.69}
{"MOLECULE": "COc1ccc(C(CC(=O)c2ccccc2)C(C(=O)c2ccccc2)C(c2ccc(OC)cc2)C2C(=O)NC(=O)NC2=O)cc1 (stereo not given)", "MEASURED TARGET": "UO-31 renal", "TGI / µM": 47.7}
{"MOLECULE": "CCc1nc2c(O)ccc(O)c2nc1C", "MEASURED TARGET": "UO-31 renal", "TGI / µM": 33.5}

Please examine the following record next.
Query for UO-31 renal: what TGI does the record show for `O=C1Nc2ccc(Cl)cc2/C1=C\c1c(-c2ccc(F)cc2)nc2ccccn12` ? 5.61

----------
Each item that follows carries a reported TGI.
Tested on: A498 renal
ASSAY METHOD TEXT: NCI tumour cell line growth inhibition, 48 h

{"COMPOUND": "COc1ccc(CC(=O)c2cc(OC)c(OC)cc2C)cc1OC", "REPORTED ENDPOINT": "TGI", "VALUE OBSERVED": "> 100 µM"}
{"COMPOUND": "CO/N=C(\\c1ccccc1)c1cnn(-c2ccccc2)c1N", "REPORTED ENDPOINT": "TGI", "VALUE OBSERVED": "> 25 µM"}
{"COMPOUND": "COc1ccc(NC(=S)NN=C(C)c2cccc(C(C)=NNC(=S)Nc3ccc(OC)cc3)n2)cc1", "REPORTED ENDPOINT": "TGI", "VALUE OBSERVED": "> 100 µM"}
{"COMPOUND": "COc1cc2c(cc1O)[C@H](C)C(c1ccc(Cl)cc1)O2 (stereo not given in full)", "REPORTED ENDPOINT": "TGI", "VALUE OBSERVED": "> 100 µM"}
{"COMPOUND": "COC(=O)OC[C@H]1O[C@@H](n2cc(C)c(=O)[nH]c2=O)CC1OC(=O)OC (stereo not given in full)", "REPORTED ENDPOINT": "TGI", "VALUE OBSERVED": "> 100 µM"}

Read the next record carefully.
Recorded TGI of `O=c1[nH]cnc2c1nnn2CCCn1nnc2c(=O)[nH]cnc21` , please. > 100 µM

----------
Test system: SNB-78 CNS
ASSAY METHOD TEXT: NCI tumour cell line growth inhibition, 48 h
REPORTED ENDPOINT: TGI

For orientation, consider the following solved cases.
{"COMPOUND": "C=C1C(=O)O[C@@H]2C[C@]3(C)[C@@H](C[C@H]12)[C@](C)(O)CC[C@@H]3O", "TGI": "> 100 µM"}
{"COMPOUND": "CN(C)CCNC(=O)c1ccc2ccc3cccnc3c2n1", "TGI": "> 34.8 µM"}
{"COMPOUND": "O=C(Cn1ccnc1[N+](=O)[O-])N(CCO)CCO", "TGI": "> 1250 µM"}

# TGI lookup, item COc1cc2c(cc1O)[C@H](C)C(c1ccc(Cl)cc1)O2 (some centres undefined) > 100 µM
